system: Liver microsome; experiment: Drug metabolism in human liver microsomes assessed as formation of 5-hydroxy saxagliptin Michaelis-Menten kinetic analysis; assay type: ADME
experimental.endpoint: Km
I'd appreciate it if you wrote the number followed by its unit.

-- ask Record request: Km value, item N#C[C@@H]1C[C@@H]2C[C@@H]2N1C(=O)[C@@H](N)C12CC3CC(CC(O)(C3)C1)C2 [SAXAGLIPTIN ANHYDROUS]
-- reply 94.8 µM

====

target: Cytochrome P450 2C19 (Homo sapiens, UniProt P33261); assay: Inhibition of CYP2C19 in human liver microsomes assessed as (S)-mephenytoin 4'-hydroxylation after 3 mins by LC-MS/MS analysis; assay type: ADME
Sequence (P33261 whole entry): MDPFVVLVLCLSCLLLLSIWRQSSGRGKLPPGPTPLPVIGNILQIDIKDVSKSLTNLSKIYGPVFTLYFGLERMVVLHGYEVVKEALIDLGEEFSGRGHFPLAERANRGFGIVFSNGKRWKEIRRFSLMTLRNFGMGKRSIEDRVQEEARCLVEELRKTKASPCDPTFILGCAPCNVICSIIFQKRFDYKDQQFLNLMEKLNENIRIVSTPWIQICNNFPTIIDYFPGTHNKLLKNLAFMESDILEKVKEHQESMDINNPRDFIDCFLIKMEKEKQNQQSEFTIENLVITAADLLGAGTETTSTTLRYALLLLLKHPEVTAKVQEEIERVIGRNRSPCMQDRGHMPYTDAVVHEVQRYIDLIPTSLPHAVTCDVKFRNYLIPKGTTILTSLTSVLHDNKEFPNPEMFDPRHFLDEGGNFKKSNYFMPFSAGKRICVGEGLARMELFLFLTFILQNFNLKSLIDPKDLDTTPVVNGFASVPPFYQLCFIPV
experimental.endpoint: IC50

-- ask Lab request: please report IC50 under test system Cytochrome P450 2C19 (Homo sapiens, UniProt P33261) for N#C[C@@H]1C[C@@H]2C[C@@H]2N1C(=O)[C@@H](N)C12CC3CC(CC(O)(C3)C1)C2 [SAXAGLIPTIN ANHYDROUS]
-- reply > 50 µM

Then this molecule:
-- ask Lab request: please report IC50 under test system Cytochrome P450 2C19 (Homo sapiens, UniProt P33261) for `N#C[C@@H]1C[C@@H]2C[C@@H]2N1C(=O)[C@@H](N)C12CC3CC(O)(CC(O)(C3)C1)C2`
-- reply > 200 µM
